assay: Cytotoxicity against human A549 cells assessed as cell viability at 10 uM after 2 days by Alamar Blue assay relative to control; type: cell-based; conditions: read-out: Activity
We begin with a simple list: items and their reported viability at 48 h, 10 µM.
Lab book: enter the figure in %, no units written.

Guide cases for viability at 48 h, 10 µM, answers given:
>  <compound>
CON(CC(=O)Nc1ccc2c(c1O)C(=O)C1=C(O)[C@]3(O)C(=O)C(C(N)=O)=C(O)[C@@H](N(C)C)[C@@H]3[C@@H](O)[C@@H]1[C@H]2C)[C@H]1CC[C@H](N(C)C)[C@@H](C)O1

>  <reported.result>
96.9

$$$$
>  <compound>
C=CCOC(=O)N[C@H]1C(N(CC(=O)Nc2ccc3c(c2O)C(=O)C2=C(O)[C@]4(O)C(=O)C(C(N)=O)=C(O)[C@@H](N(C)C)[C@@H]4[C@@H](O)[C@@H]2[C@H]3C)OC)O[C@H](CO)[C@@H](O)[C@@H]1O (mixture of isomers)

>  <reported.result>
98.8

$$$$
>  <compound>
CON(CC(=O)Nc1ccc2c(c1O)C(=O)C1=C(O)[C@]3(O)C(=O)C(C(N)=O)=C(O)[C@@H](N(C)C)[C@@H]3[C@@H](O)[C@@H]1[C@H]2C)C1OC[C@@H](O)[C@@H](O)[C@@H]1O (mixture of isomers)

>  <reported.result>
97.2

$$$$

Query: Entry `CON(CC(=O)Nc1ccc2c(c1O)C(=O)C1=C(O)[C@]3(O)C(=O)C(C(N)=O)=C(O)[C@@H](N(C)C)[C@@H]3[C@@H](O)[C@@H]1[C@H]2C)[C@@H]1O[C@H](CO)[C@@H](O)[C@H](O)[C@H]1NC(=O)C(F)(F)F` has what viability at 48 h, 10 µM?
Result: 98.7

Query: Entry `CON(CC(=O)Nc1ccc2c(c1O)C(=O)C1=C(O)[C@]3(O)C(=O)C(C(N)=O)=C(O)[C@@H](N(C)C)[C@@H]3[C@@H](O)[C@@H]1[C@H]2C)[C@H]1O[C@H](CO)[C@@H](O)[C@H](O)[C@H]1N` has what viability at 48 h, 10 µM?
Result: 99.1
